Task for the reader: assign each of the following compounds its reported viscosity.
Assay Comment: xn = mol fraction of the nth substance listed
Test Settings: 323.15 K; 100 kPa; Liquid; Falling or rolling sphere viscometry; x1 = 0.25
Answers are plain numbers, in mPa·s.

Illustrative cases are given below, each with its answer.
{"Compound": "CCCC[N+](CCCC)(CCCC)Cc1ccccc1.[Cl-] [benzyltributylammonium chloride] + OCCO", "Val": 70.7}
{"Compound": "C[N+](C)(C)Cc1ccccc1.[Cl-] [trimethylbenzylammonium chloride] + OCC(O)CO", "Val": 126.7}
{"Compound": "C[N+](C)(C)Cc1ccccc1.[Cl-] [trimethylbenzylammonium chloride] + OCCO", "Val": 16.8}

Now for another entry.
Endpoint output: viscosity of CCCC[N+](CCCC)(CCCC)Cc1ccccc1.[Cl-] [benzyltributylammonium chloride] + OCC(O)CO . Value?
346.1
